System: HSC1
Test: relative IC50 (inflection point of fitted dose-response curve, CellTiter-Glo viability, 72 h; top asymptote may be below 50% inhibition); higher = less potent
Give relative IC50 for every item shown.
All answers are understood in nM, so give the number only.

Data request: Let me know recorded relative IC50 for Cc1c2oc3c(C)ccc(C(=O)N[C@@H]4C(=O)N[C@H](C(C)C)C(=O)N5CCC[C@H]5C(=O)N(C)CC(=O)N(C)[C@@H](C(C)C)C(=O)O[C@@H]4C)c3nc-2c(C(=O)N[C@@H]2C(=O)N[C@H](C(C)C)C(=O)N3CCC[C@H]3C(=O)N(C)CC(=O)N(C)[C@@H](C(C)C)C(=O)O[C@@H]2C)c(N)c1=O [Dactinomycin] , thanks.
Data returned: 0.906

Data request: Provide relative IC50 value for the following compound: NS(=O)(=O)OC[C@@H]1C[C@@H](n2ccc3c(N[C@H]4CCc5ccccc54)ncnc32)C[C@@H]1O [Pevonedistat]
Data returned: 513

Data request: State its relative IC50: O=c1[nH]cc(F)c(=O)[nH]1 [Fluorouracil]
Data returned: 3580

Data request: Name the recorded relative IC50 of the item CCS(=O)(=O)c1cccc(-c2cc(C(=O)NC3CCN(C)CC3)c(C)c3[nH]c4ncc(C)cc4c23)c1 [TAK-901] in your answer.
Data returned: 111

Data request: Return relative IC50 (reported value) for this compound: CC[C@@H]1C(=O)N(C)c2cnc(Nc3ccc(C(=O)NC4CCN(C)CC4)cc3OC)nc2N1C1CCCC1 [BI 2536]
Data returned: 27.1

Data request: Supply recorded relative IC50 for C=CC(=O)Nc1cc2c(Nc3ccc(F)c(Cl)c3)ncnc2cc1OCCCN1CCOCC1 [Canertinib] here.
Data returned: 1610

Data request: Assign relative IC50 to the following record: Nc1ccn([C@@H]2O[C@H](CO)[C@@H](O)[C@@H]2O)c(=O)n1 [Cytarabine]
Data returned: 283

Data request: Please indicate relative IC50 recorded for COc1cccc2c1C(=O)c1c(O)c3c(c(O)c1C2=O)C[C@@](O)(C(=O)CO)C[C@@H]3O[C@H]1C[C@H](N)[C@H](O)[C@H](C)O1 [Doxorubicin]
Data returned: 83.2

Data request: Provide measured relative IC50 value, entry: O=C(CCCCCCC(=O)Nc1ccc([C@H]2O[C@@H](CSc3nc(-c4ccccc4)c(-c4ccccc4)o3)C[C@@H](c3ccc(CO)cc3)O2)cc1)NO [Tubacin]
Data returned: 3280

Data request: Note down relative IC50 recorded for O=C1NC(=O)[C@@H](c2cn3c4c(cccc24)CCC3)[C@@H]1c1c[nH]c2ccccc12 [Tivantinib]
Data returned: 276

Data request: Answer with the recorded relative IC50 of Nc1ncnc2c1nc(Cl)n2[C@@H]1O[C@H](CO)[C@@H](O)[C@H]1O [8-chloro-adenosine] only.
Data returned: 3550

Data request: Provide one value: measured relative IC50 of CC(=O)OC[C@H]1O[C@@H]([S-])[C@H](OC(C)=O)[C@@H](OC(C)=O)[C@@H]1OC(C)=O.CCP(CC)CC.[Au+] [Auranofin]
Data returned: 387

###

Test system: HS-Sch-2
Assay: drug sensitivity score (DSS, CellTiter-Glo viability, 72 h) (DSS (dimensionless)); higher = more sensitive; extreme values may be limits of the assay
Kindly return true if reported drug sensitivity score is no lower than 10; return false if it is lower.

Data request: Hi, just wondering whether CCN1CCN(Cc2ccc(-c3cc4c(N[C@H](C)c5ccccc5)ncnc4[nH]3)cc2)CC1 [NVP-AEE788] (max concentration tested 2500 nM) shows drug sensitivity score of 10 or higher.
Data returned: false

Data request: Tell me whether drug sensitivity score is at least 10 here: Nc1nc(Cl)nc2c1ncn2[C@@H]1O[C@H](CO)[C@@H](O)[C@@H]1F [Clofarabine] (max concentration tested 10000 nM)
Data returned: true

Data request: Can N#CC1(c2ccc(NC(=O)c3cccnc3NCc3ccncc3)cc2)CCCC1 [Apatinib] (max concentration tested 10000 nM) be said to have drug sensitivity score at or above 10?
Data returned: false

Data request: Could you verify whether the entry COc1ccc(CCc2nc3cc(-c4c(C)noc4C)ccc3n2C[C@H](C)N2CCOCC2)cc1Cl [SGC-CBP30] (max concentration tested 25000 nM) shows drug sensitivity score of no less than 10?
Data returned: false

Data request: Could you please find out whether COc1cc(Nc2c(C#N)cnc3cc(OCCCN4CCN(C)CC4)c(OC)cc23)c(Cl)cc1Cl [Bosutinib] (max concentration tested 10000 nM) has drug sensitivity score that meets 10 or exceeds it?
Data returned: false

Data request: Quick check, drug sensitivity score >= 10? CC(C)C(=O)Nc1ccc([N+](=O)[O-])c(C(F)(F)F)c1 [Flutamide] (max concentration tested 10000 nM)
Data returned: false

Data request: Identify whether the reported drug sensitivity score of the following compound is 10 or greater: C/C=C1\NC(=O)[C@H]2CSSCC/C=C/[C@H](CC(=O)N[C@H](C(C)C)C(=O)N2)OC(=O)[C@H](C(C)C)NC1=O [Romidepsin] (max concentration tested 1000 nM)
Data returned: true

Data request: Check this compound for drug sensitivity score at or above 10: Cc1sc2c(c1C)C(c1ccc(Cl)cc1)=N[C@@H](CC(=O)Nc1ccc(O)cc1)c1nnc(C)n1-2 [OTX015] (max concentration tested 10000 nM)
Data returned: true

Data request: Quick check: does NCC(=O)Nc1ccc(-n2nc(C(F)(F)F)cc2-c2ccc3c(ccc4ccccc43)c2)cc1 (max concentration tested 25000 nM) have drug sensitivity score greater than or equal to 10?
Data returned: false

Data request: API: above_or_equal(metric=drug sensitivity score, cutoff=10) for item Cc1c(CN2CCN(C(=O)[C@H](C)O)CC2)sc2c(N3CCOCC3)nc(-c3cnc(N)nc3)nc12 [Apitolisib] (max concentration tested 10000 nM)
Data returned: false

###

Tested on: YST-1
Assay: relative IC50 (inflection point of fitted dose-response curve, CellTiter-Glo viability, 72 h; top asymptote may be below 50% inhibition); higher = less potent
Assignment: determine reported relative IC50 for the given compounds.
API: value field is a number in nM; no unit string.

Data request: Read the entry Nc1ncnc2c1c(-c1cccc(OCc3ccccc3)c1)cn2[C@H]1C[C@@H](CN2CCC2)C1 and write its reported relative IC50.
Data returned: 654

Data request: Identify measured relative IC50 corresponding to COc1cc(OC)c(/C=C/S(=O)(=O)Cc2ccc(OC)c(NCC(=O)O)c2)c(OC)c1
Data returned: 59.2

Data request: Read off the recorded relative IC50 for CO[C@@]12[C@H](COC(N)=O)C3=C(C(=O)C(C)=C(N)C3=O)N1C[C@@H]1N[C@@H]12
Data returned: 2190

Data request: Return the recorded relative IC50 value; entry: CC/C(=C(\c1ccccc1)c1ccc(OCCN(C)C)cc1)c1ccccc1
Data returned: 3250

Data request: Note down relative IC50 recorded for CCNC(=O)Nc1ccc(-c2nc3c(c(N4CCOC[C@@H]4C)n2)CCN(C2COC2)C3)cc1
Data returned: 192

Data request: Give relative IC50 for O=C(O)c1ccc2c(c1)nc(Nc1cccc(Cl)c1)c1ccncc12
Data returned: 2360

Data request: Supply relative IC50 value. Item: CN(Cc1cnc2nc(N)nc(N)c2n1)c1ccc(C(=O)N[C@@H](CCC(=O)O)C(=O)O)cc1 [Methotrexate]
Data returned: 60.9

Data request: Give reported relative IC50 value for O=C1c2ccccc2-c2n[nH]c3cccc1c23
Data returned: 20100

Data request: Tell me its relative IC50 given COc1cc2ncnc(Nc3ccc(F)c(Cl)c3)c2cc1OCCCN1CCOCC1 as the entry.
Data returned: 987

Data request: Entry Cc1nc(NC(=O)N2CCC[C@H]2C(N)=O)sc1-c1ccnc(C(C)(C)C(F)(F)F)c1 needs its relative IC50 filled in; supply it.
Data returned: 217

Data request: Provide only the value of recorded relative IC50 for CN1CCC(CNc2ccc3ncc(-c4cccc(OC(F)(F)F)c4)n3n2)CC1
Data returned: 1660

Data request: # return recorded relative IC50 for entry CC(=O)c1cnc2ccc(-c3cc(Cl)c(O)c(Cl)c3)nc2c1N[C@H]1CC[C@H](CN(C)C)CC1
Data returned: 10.8

###

System: HSC2 (primary human Schwann cells)
Experiment: drug sensitivity score (DSS, CellTox-Green cytotoxicity, 72 h) (DSS (dimensionless)); higher = more cytotoxic; extreme values may be limits of the assay
So I've got a bunch of molecules here, and I need their drug sensitivity score values.
// response body must contain only the number

Data request: // fetch drug sensitivity score given entry C[C@]12C=CC(=O)C=C1CC[C@@H]1[C@@H]2C(=O)C[C@@]2(C)[C@H]1CC[C@]2(O)C(=O)CO [Prednisone] (max concentration tested 10000 nM)
Data returned: 0

Data request: // Input: CN[C@@H]1C[C@H]2O[C@@](C)([C@@H]1OC)n1c3ccccc3c3c4c(c5c6ccccc6n2c5c31)C(=O)N[C@H]4O [UCN-01] (max concentration tested 10000 nM) . Output its drug sensitivity score only.
Data returned: 21.7

Data request: Supply drug sensitivity score value. Item: CN[C@@H](C)C(=O)N[C@H]1CN(C(=O)CC(C)C)CC[C@H]2CC[C@@H](C(=O)NC(c3ccccc3)c3ccccc3)N2C1=O [AT-406] (max concentration tested 10000 nM)
Data returned: 0

Source listed as the supplement of paper PMC5579334.
